# Tested on: LU99A
# test-method-notes: relative viability (nuclei count vs DMSO), 5 days (fraction); higher = more cells survive
# condition-notes: first compound 0.005 µM
reported-property: relative viability
Keep the answer to the number alone.

compound: COc1cc2nccc(Oc3ccc(NC(=O)Nc4cc(C)on4)c(Cl)c3)c2cc1OC [Tivozanib] + C[C@]1(O)C[C@@H](c2nc(-c3ccc4ccc(-c5ccccc5)nc4c3)c3c(N)nccn32)C1 [Linsitinib] (partner 1 µM)
observed-value: 0.517

compound: COc1cc2nccc(Oc3ccc(NC(=O)Nc4cc(C)on4)c(Cl)c3)c2cc1OC [Tivozanib] + Nc1ncn([C@H]2C[C@H](O)[C@@H](CO)O2)c(=O)n1 [Decitabine] (partner 2 µM)
observed-value: 1.04

compound: Nc1ccn([C@@H]2O[C@H](CO)[C@@H](O)[C@@H]2O)c(=O)n1 [Cytarabine] + COc1cc2c(Oc3ccc(NC(=O)C4(C(=O)Nc5ccc(F)cc5)CC4)cc3F)ccnc2cc1OCCCN1CCOCC1 [Foretinib] (partner 0.25 µM)
observed-value: 0.762

compound: Nc1ccn([C@@H]2O[C@H](CO)[C@@H](O)[C@@H]2O)c(=O)n1 [Cytarabine] + C[C@@H](Oc1cc(-c2cnn(C3CCNCC3)c2)cnc1N)c1c(Cl)ccc(F)c1Cl [Crizotinib] (partner 1 µM)
observed-value: 0.62

compound: COc1cc2nccc(Oc3ccc(NC(=O)Nc4cc(C)on4)c(Cl)c3)c2cc1OC [Tivozanib] + Cc1nc(Nc2ncc(C(=O)Nc3c(C)cccc3Cl)s2)cc(N2CCN(CCO)CC2)n1 [Dasatinib] (partner 0.075 µM)
observed-value: 0.356

Now take the following compound into account.
Please report the recorded relative viability for COc1cc2nccc(Oc3ccc(NC(=O)Nc4cc(C)on4)c(Cl)c3)c2cc1OC [Tivozanib] + CS(=O)(=O)CCNCc1ccc(-c2ccc3ncnc(Nc4ccc(OCc5cccc(F)c5)c(Cl)c4)c3c2)o1 [Lapatinib] (partner 2 µM) . 0.914

* * *

# System: NCI-H1666
# test-method-notes: relative viability (nuclei count vs DMSO), 5 days (fraction); higher = more cells survive
# condition-notes: first compound 0.002 µM
reported-property: relative viability
// no unit string in output, number only

Give the measured relative viability of CC(=O)O[C@@]12CO[C@@H]1C[C@H](O)[C@@]1(C)C(=O)[C@H](O)C3=C(C)[C@@H](OC(=O)[C@H](O)[C@@H](NC(=O)OC(C)(C)C)c4ccccc4)C[C@@](O)([C@@H](OC(=O)c4ccccc4)[C@H]21)C3(C)C [Docetaxel] + CS(=O)(=O)N1CCN(Cc2cc3nc(-c4cccc5[nH]ncc45)nc(N4CCOCC4)c3s2)CC1 [Pictilisib] (partner 1 µM) . 0.273

* * *

# Test system: NCI-H1734
# test-method-notes: relative viability (nuclei count vs DMSO), 5 days (fraction); higher = more cells survive
# condition-notes: first compound 0.005 µM
relative viability overview
// return a plain number; no unit text

Look over these answered cases.
compound: COc1cc2nccc(Oc3ccc(NC(=O)Nc4cc(C)on4)c(Cl)c3)c2cc1OC [Tivozanib] + CC(=O)c1c(C)c2cnc(Nc3ccc(N4CCNCC4)cn3)nc2n(C2CCCC2)c1=O [Palbociclib] (partner 0.5 µM)
observed-value: 0.313

compound: COc1cc2nccc(Oc3ccc(NC(=O)Nc4cc(C)on4)c(Cl)c3)c2cc1OC [Tivozanib] + C[C@]1(O)C[C@@H](c2nc(-c3ccc4ccc(-c5ccccc5)nc4c3)c3c(N)nccn32)C1 [Linsitinib] (partner 1 µM)
observed-value: 0.847

Record request: relative viability value, item Nc1ccn([C@@H]2O[C@H](CO)[C@@H](O)[C@@H]2O)c(=O)n1 [Cytarabine] + CCNC(=O)c1noc(-c2cc(C(C)C)c(O)cc2O)c1-c1ccc(CN2CCOCC2)cc1 [Luminespib] (partner 0.01 µM) 0.251

Which relative viability reading was recorded for the compound COc1cc2nccc(Oc3ccc(NC(=O)Nc4cc(C)on4)c(Cl)c3)c2cc1OC [Tivozanib] + CC1(C)CCC(c2ccc(Cl)cc2)=C(CN2CCN(c3ccc(C(=O)NS(=O)(=O)c4ccc(N[C@H](CCN5CCOCC5)CSc5ccccc5)c(S(=O)(=O)C(F)(F)F)c4)cc3)CC2)C1 [Navitoclax] (partner 0.5 µM) ? 0.865

* * *

# Test system: NCI-H2347
# test-method-notes: relative viability (nuclei count vs DMSO), 5 days (fraction); higher = more cells survive
# condition-notes: first compound 0.1265 µM
Documented relative viability across a set of compounds

compound: Cc1sc2c(c1C)C(c1ccc(Cl)cc1)=N[C@@H](CC(=O)OC(C)(C)C)c1nnc(C)n1-2 [JQ1] + CC1(C)CCC(c2ccc(Cl)cc2)=C(CN2CCN(c3ccc(C(=O)NS(=O)(=O)c4ccc(N[C@H](CCN5CCOCC5)CSc5ccccc5)c(S(=O)(=O)C(F)(F)F)c4)cc3)CC2)C1 [Navitoclax] (partner 0.5 µM)
tested-on: NCI-H2347
relative viability: 0.691
//
compound: Cc1sc2c(c1C)C(c1ccc(Cl)cc1)=N[C@@H](CC(=O)OC(C)(C)C)c1nnc(C)n1-2 [JQ1] + O=C(CCCCCCC(=O)Nc1ccccc1)NO [Vorinostat] (partner 1 µM)
tested-on: NCI-H2347
relative viability: 0.521
//
compound: Cc1sc2c(c1C)C(c1ccc(Cl)cc1)=N[C@@H](CC(=O)OC(C)(C)C)c1nnc(C)n1-2 [JQ1] + CC(=O)c1c(C)c2cnc(Nc3ccc(N4CCNCC4)cn3)nc2n(C2CCCC2)c1=O [Palbociclib] (partner 0.5 µM)
tested-on: NCI-H2347
relative viability: 0.393
//
compound: Cc1sc2c(c1C)C(c1ccc(Cl)cc1)=N[C@@H](CC(=O)OC(C)(C)C)c1nnc(C)n1-2 [JQ1] + C[C@]1(O)C[C@@H](c2nc(-c3ccc4ccc(-c5ccccc5)nc4c3)c3c(N)nccn32)C1 [Linsitinib] (partner 1 µM)
tested-on: NCI-H2347
relative viability: 0.747

What does the data say about its relative viability? Entry: Cc1sc2c(c1C)C(c1ccc(Cl)cc1)=N[C@@H](CC(=O)OC(C)(C)C)c1nnc(C)n1-2 [JQ1] + Cc1cc(Nc2cc(N3CCN(C)CC3)nc(Sc3ccc(NC(=O)C4CC4)cc3)n2)n[nH]1 [Tozasertib] (partner 0.1 µM) 0.554

* * *

# System: NCI-H2405
# test-method-notes: relative viability (nuclei count vs DMSO), 5 days (fraction); higher = more cells survive
# condition-notes: first compound 0.05 µM
Recorded relative viability for the following molecules
Could you respond with only the numeric value?

molecule: Nc1ccn([C@@H]2O[C@H](CO)[C@@H](O)[C@@H]2O)c(=O)n1 [Cytarabine] + CC(=O)c1c(C)c2cnc(Nc3ccc(N4CCNCC4)cn3)nc2n(C2CCCC2)c1=O [Palbociclib] (partner 0.5 µM)
relative viability: 0.367

Consider now this further molecule.
Find relative viability (NCI-H2405) for the entry COc1cc2nccc(Oc3ccc(NC(=O)Nc4cc(C)on4)c(Cl)c3)c2cc1OC [Tivozanib] + C[C@@H](Oc1cc(-c2cnn(C3CCNCC3)c2)cnc1N)c1c(Cl)ccc(F)c1Cl [Crizotinib] (partner 1 µM) 0.933

* * *

# Tested on: H3255
# test-method-notes: relative viability (nuclei count vs DMSO), 5 days (fraction); higher = more cells survive
# condition-notes: first compound 0.4 µM
So basically, if relative viability comes in under 0.6 it's Satisfied, and if it's 0.6 or more it's Not satisfied.

// below: answered compounds
compound: Cc1sc2c(c1C)C(c1ccc(Cl)cc1)=N[C@@H](CC(=O)OC(C)(C)C)c1nnc(C)n1-2 [JQ1] + CS(=O)(=O)N1CCN(Cc2cc3nc(-c4cccc5[nH]ncc45)nc(N4CCOCC4)c3s2)CC1 [Pictilisib] (partner 1 µM)
qualitative-label: Satisfied

compound: Cc1sc2c(c1C)C(c1ccc(Cl)cc1)=N[C@@H](CC(=O)OC(C)(C)C)c1nnc(C)n1-2 [JQ1] + CC(=O)Nc1cccc(-n2c(=O)n(C3CC3)c(=O)c3c(Nc4ccc(I)cc4F)n(C)c(=O)c(C)c32)c1 [Trametinib] (partner 0.02 µM)
qualitative-label: Satisfied

compound: Cc1sc2c(c1C)C(c1ccc(Cl)cc1)=N[C@@H](CC(=O)OC(C)(C)C)c1nnc(C)n1-2 [JQ1] + NC(=O)Nc1cc(-c2cccc(F)c2)sc1C(=O)N[C@H]1CCCNC1 [AZD7762] (partner 0.2 µM)
qualitative-label: Not satisfied

compound: Cc1sc2c(c1C)C(c1ccc(Cl)cc1)=N[C@@H](CC(=O)OC(C)(C)C)c1nnc(C)n1-2 [JQ1] + N=C(N)NC(=N)NCCc1ccccc1 [Phenformin] (partner 250 µM)
qualitative-label: Satisfied

compound: Cc1sc2c(c1C)C(c1ccc(Cl)cc1)=N[C@@H](CC(=O)OC(C)(C)C)c1nnc(C)n1-2 [JQ1] + C[C@@H](Oc1cc(-c2cnn(C3CCNCC3)c2)cnc1N)c1c(Cl)ccc(F)c1Cl [Crizotinib] (partner 1 µM)
qualitative-label: Not satisfied

compound: Cc1sc2c(c1C)C(c1ccc(Cl)cc1)=N[C@@H](CC(=O)OC(C)(C)C)c1nnc(C)n1-2 [JQ1] + CC(=O)c1c(C)c2cnc(Nc3ccc(N4CCNCC4)cn3)nc2n(C2CCCC2)c1=O [Palbociclib] (partner 0.5 µM)
qualitative-label: Satisfied

Now take the following compound into account.
Would you kindly verify if relative viability of Cc1sc2c(c1C)C(c1ccc(Cl)cc1)=N[C@@H](CC(=O)OC(C)(C)C)c1nnc(C)n1-2 [JQ1] + O=C(c1cc(Cc2n[nH]c(=O)c3ccccc23)ccc1F)N1CCN(C(=O)C2CC2)CC1 [Olaparib] (partner 8 µM) is strictly less than 0.6? Satisfied
